Assay: folding stability dG unfold (combined trypsin and chymotrypsin); higher = more stable
observable: folding stability dG unfold (kJ/mol)
One number for each entry, in kJ/mol.

sequence_input="SAGGSAMVMITIKIKFPGNEVEINMPAEDLDELLSHPELGDNFEITEIEVMPIPPPPVDPEQAEEKSAGGSA [r15_460_TrROS]" value_observed=4.29
sequence_input="SAGGSAGGAPPDLKVTVKPTPGPGTGQRYTVVVELDEGGVLPFPFSFASPSEVEKAAKAIAALLSAGGSAGG [r6_996_TrMRF]" value_observed=5.49
sequence_input="SMEKVKAKPAGEVTFVFDNEDPSLTPEQQVELVEKELEKLPELKIYEVEAEVDLETGKVTIKVKLLVEEVSA [r9_1001_TrMRF]" value_observed=3.41

Please state folding stability dG unfold for every sequence in the list that follows.
1. KETVTLEFELEDGSKVRVEVDLETKEVKVEVEKPPAPPPPPVIVLPPGLTEEERERLIKELEKKGIKVVVLS [r1_242_TrROS_Hall]
2. SAGGSAGGSAGGDNVLILVKLPKGYRVYSINDPEVLKAVTLKELKDELEKKTGYPVEVLPSAGGSAGGSAGG [r7_259_TrMRF]
3. SAGGMLVVLLDDRPEVLPVNPERFETPEEAVEAVAREVAERFPDAGERRVVVVNEDGEEVATVELTPESAGG [r13_257_TrMRF]
4. SAGMVTTTTVTFPNGATMTVTTHSSGIITIEATSEEDARAFLEAQGLPLTSREVLPDGTYRFTAVVPPSAGG [r19_257_JUSTAS]

9.54
6.59
1.92
18.9

List the reported folding stability dG unfold of each sequence below.
1. SAGMYIEGSLSSPEEAPVVAVPFPGPEKLLLAPLAVGLEEIREALEEEGFEPVEIRVAETEPGVPLDLSAGG [r19_386_TrMRF]
2. SAGGSAGGSAGGKKYKIKVYVKDKKTKKWKKIKEIEVDTKEEALEAIKKLPPNYEVKIVPSAGGSAGGSAGG [r7_307_TrROS_Hall]
3. SAGGSAGGSAGGSIEIIVRTPEMAKQMAKRIQKILADQGNPPPLKIEIHVIPPDDLPPWSAGGSAGGSAGGS [r4_472_TrROS]

1. -2.9
2. 20.5
3. 1.62

Entry source: the supplement of paper PMC12764529
